run_description: chemical genetic growth profiling, strain panel (AID 1159580);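 further: tested at 20 µM; growth read once vehicle control cultures reached saturation at 30 °C; 1 = growth at the plate median or of vehicle wells; lower values mean less growth of the strain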
settings: S. cerevisiae deletion strains, growth OD, locus YER015W, strain faa2, active compounds read low
Hit rate of the full screen: of about 5,500 compounds, about 2,000 (36%) were called active. Not shown: some 18% with an inconclusive outcome. The list shows a part of the results.
Consider the following compounds and their measured normalized growth readings.
Form rule: numeric answer, no unit written next to it.

Before answering, review these 4 worked examples.
>>> data_value("CCCSc1ccc2nc(NC(=O)OC)[nH]c2c1")
1
>>> data_value("CCOC(=O)NNc1nncc2ccccc12")
1.01
>>> data_value("CS(=O)(=O)c1ccc([C@@H](O)[C@@H](CO)NC(=O)C(Cl)Cl)cc1")
1.02
>>> data_value("O=C(O)c1cc(O)c2c(c1)[C@@H]([C@H]1c3cc(C(=O)O)cc(O)c3C(=O)c3c(O[C@H]4O[C@H](CO)[C@@H](O)[C@H](O)[C@H]4O)cccc31)c1cccc(O[C@H]3O[C@H](CO)[C@@H](O)[C@H](O)[C@H]3O)c1C2=O")
1.01

Please examine the following record next.
Record O=C(O)C1=CCCNC1 , field normalized growth: 0.984

* * *

run_description: chemical genetic growth profiling, strain panel (AID 1159580);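 further: tested at 20 µM; growth read once vehicle control cultures reached saturation at 30 °C; 1 = growth at the plate median or of vehicle wells; lower values mean less growth of the strain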
settings: S. cerevisiae deletion strains, growth OD, locus YKL085W, strain MDH1 (second series), active compounds read low
The whole screen tested about 5,500 compounds, of which about 2,000 (36%) were called active. Another 18% or so got no clear call; they are omitted. The list shows a part of the results.
Form field: normalized growth (one value per entry).
Enter the number alone.

Look over these answered cases.
>>> data_value("CC[N+](C)(C)c1cccc(O)c1")
1
>>> data_value("CC12CCC3C(CC3(C)C)C(C)(CCC1=O)O2 (configuration not stated)")
1.01
>>> data_value("NC1=NCCN1CC(=O)O")
0.983
>>> data_value("CC(C)CC(NC(=O)OCC1c2ccccc2-c2ccccc21)C(=O)O (configuration not stated)")
1

In plain terms, CC(=O)c1cc(CC=C(C)C)c(O)c(CC=C(C)C)c1 has a documented normalized growth of 0.967

For reference, reported normalized growth for NNCc1cccc(O)c1 stands at 0.991

Reported normalized growth ( COc1cc(C(C)=O)cc(OC)c1O ) = 0.986

* * *

run_description: chemical genetic growth profiling, strain panel (AID 1159580);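 further: tested at 20 µM; growth read once vehicle control cultures reached saturation at 30 °C; 1 = growth at the plate median or of vehicle wells; lower values mean less growth of the strain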
settings: S. cerevisiae deletion strains, growth OD, locus YGL227W, strain vid30
The whole screen tested about 5,500 compounds, of which about 2,000 (36%) were called active. Roughly 18% stayed inconclusive and do not appear here. No stated cut-off is given here; in the data, active means normalized growth mostly below about 0.91 (no sharp cut-off); inconclusive means no clear call, values can overlap the other calls; inactive means mostly above about 0.92. The list shows a part of the results.
Please answer using one outcome listed in active, inactive

>>> assigned_label("COc1cc(C/C=C/c2ccccc2)c(OC)cc1O")
"inactive"
>>> assigned_label("Cc1cc(=O)[nH]c(=S)[nH]1")
"inactive"
>>> assigned_label("COC(=O)c1c(OC)cc2c(c1C)Oc1c(Cl)c(OC(C)=O)c(Cl)c(C)c1C(=O)O2")
"inactive"
>>> assigned_label("CC12CCC(=O)C=C1CCC1C2[C@@H](O)CC2(C)C1CC[C@]2(O)C(=O)COP(=O)(O)O (stereo partly drawn)")
"inactive"
>>> assigned_label("CN(C)CCCN1c2ccccc2Sc2ccc(Cl)cc21")
"active"
>>> assigned_label("CN(C)CCCN1c2ccccc2CCc2ccccc21")
"inactive"

Ask | Recorded call for COC(=O)c1c(OC)cc2c(c1C)Oc1c(Cl)c(O)c(Cl)c(C)c1C(=O)O2 ?
Reply | inactive

Ask | Give the logged outcome of this assay for the following compound: NC1=NCCN1CC(=O)O
Reply | inactive
